- Test system: HIV
- Assay overview: MT4 assay: antiviral HIV activity (cell protection, cell titer glo readout at 96 hours)
- Format: cell-based
- Reported conditions: Human immunodeficiency virus 1, MT4, 96 h, MT4 cells, cell titer glo readout at 96 hours, 10 point dose response; read-out: HIV MT4 Assay IC50
Recorded IC50 values for a group of compounds are listed next.
Quick reminder: number only, in nM, skip the unit.

Worked cases, IC50 given:
Compound	IC50 (nM)
Cc1nc2c(cc(-c3ccc(-c4ccc5c(cnn5C)c4)nc3)n2C)c(-c2cc(F)c3c(c2C)CCCO3)c1[C@H](OC(C)(C)C)C(=O)O (atropisomer, axis not shown)	26.3
Cc1nc2c(cc(-c3ccnc(N4CCCN(C5CCOCC5)CC4)c3)n2C)c(-c2cc(F)c3c(c2C)CCCO3)c1[C@H](OC(C)(C)C)C(=O)O (atropisomer, axis not shown)	20

Consider the record given below.
// lookup IC50 for Cc1nc2c(cc(-c3ccnc(-n4ccnc4C)c3)n2C)c(-c2cc(F)c3c(c2C)CCCO3)c1[C@H](OC(C)(C)C)C(=O)O (atropisomer, axis not shown)
15.4

----------
- Test system: HIV
- Assay overview: MT4 assay: antiviral HIV activity (cell protection, cell titer glo readout at 96 hours)
- Type: cell-based
- Reported conditions: Human immunodeficiency virus 1, MT4, 96 h, MT4 cells, cell titer glo readout at 96 hours, 10 point dose response; read-out: HIV MT4 Assay IC50
Readout kind: pIC50
Quick note: pIC50 values are minus log10 of concentrations in mol/L.

> print(dat)
                                  structure  target.under.test  readout.kind  value.measured
1  Cc1nc2c(cc(-c3csc(N4CCN(C5CCOCC5)CC4)n3)n2C)c(-c2cc(F)c3c(c2C)CCCO3)c1[C@H](OC(C)(C)C)C(=O)O                HIV         pIC50            8.57
2  Cc1nc2c(cc(C(=O)NCCN3CCCCC3)n2C)c(-c2cc(F)c3c(c2C)CCCO3)c1[C@H](OC(C)(C)C)C(=O)O                HIV         pIC50            6.53

# get_value(readout='pIC50', item= "Cc1nc2c(cc(C(=O)N3CCC[C@H]3C(=O)N(C)c3ccc4c(cnn4C)c3)n2C)c(-c2cc(F)c3c(c2C)CCCO3)c1[C@H](OC(C)(C)C)C(=O)O" )
6.07

----------
- System: HIV
- Assay overview: MT4 assay: antiviral HIV activity (cell protection, cell titer glo readout at 96 hours)
- Assay type: cell-based
- Reported conditions: Human immunodeficiency virus 1, MT4, 96 h, MT4 cells, cell titer glo readout at 96 hours, 10 point dose response; read-out: HIV MT4 Assay IC50
Readout kind: pIC50
pIC50 here: minus log base 10 of the concentration, concentration in moles per litre.

Some entries whose results are on file:
Compound	pIC50
Cc1nc2c(cc(C(=O)Nc3ccc4c(cnn4C)c3)n2C)c(-c2cc(F)c3c(c2C)CCCO3)c1[C@H](OC(C)(C)C)C(=O)O	7.37
Cc1nc2c(cc(-c3ccnc(N4CCN5CCC4C5)c3)n2C)c(-c2cc(F)c3c(c2C)CCCO3)c1[C@H](OC(C)(C)C)C(=O)O (some centres unmarked)	6.78
COCCS(=O)(=O)N1CCCN(c2cc(-c3cc4c(-c5cc(F)c6c(c5C)CCCO6)c([C@H](OC(C)(C)C)C(=O)O)c(C)nc4n3C)ccn2)CC1 (atropisomer, axis not shown)	7.70

Item under review: "Cc1nc2c(cc(-c3nc(N4CCC(F)CC4)ns3)n2C)c(-c2cc(F)c3c(c2C)CCCO3)c1[C@H](OC(C)(C)C)C(=O)O" . Reported pIC50?
7.54

# get_value(readout='pIC50', item= Cc1nc2c(cc(-c3ccnc(-c4ccc5cnn(C)c5c4)c3)n2C)c(-c2cc(F)c3c(c2C)CCCO3)c1[C@H](OC(C)(C)C)C(=O)O (atropisomer, axis not shown) )
8.34

----------
Measured log10(IC50), listed per entry for reference.
- Tested on: HIV
- Assay overview: MT4 assay: antiviral HIV activity (cell protection, cell titer glo readout at 96 hours)
- Format: cell-based
- Reported conditions: Human immunodeficiency virus 1, MT4, 96 h, MT4 cells, cell titer glo readout at 96 hours, 10 point dose response; read-out: HIV MT4 Assay IC50
Scale: decimal log of IC50, IC50 in µM.

Some compounds with recorded log10(IC50):
> print(dat)
                                   compound  readout.kind  value.measured
1  COC[C@@H]1CCCN1c1nnc(-c2cc3c(-c4cc(F)c5c(c4C)CCCO5)c([C@H](OC(C)(C)C)C(=O)O)c(C)nc3n2C)o1   log10(IC50)           -2.52
2  Cc1nc2c(cc(-c3nsc(N4CCC(C)CC4)n3)n2C)c(-c2cc(F)c3c(c2C)CCCO3)c1[C@H](OC(C)(C)C)C(=O)O   log10(IC50)           -1.97
3  Cc1nc2c(cc(-c3cc(-c4ccc5c(cnn5C)c4)[nH]n3)n2C)c(-c2cc(F)c3c(c2C)CCCO3)c1[C@H](OC(C)(C)C)C(=O)O   log10(IC50)           -1.85
4  Cc1nc2c(cc(-c3nnc(N4CCN5CCC[C@H]5C4)o3)n2C)c(-c2cc(F)c3c(c2C)CCCO3)c1[C@H](OC(C)(C)C)C(=O)O   log10(IC50)           -2.51

Fill in the recorded log10(IC50) for this compound, with HIV as test system: "Cc1nc2c(cc(C(=O)N3Cc4ccccc4C3)n2C)c(-c2cc(F)c3c(c2C)CCCO3)c1[C@H](OC(C)(C)C)C(=O)O"
-1.38

# query: log10(IC50) | item COCCNC(=O)/C=C/c1cc2c(-c3cc(F)c4c(c3C)CCCO4)c([C@H](OC(C)(C)C)C(=O)O)c(C)nc2n1C (atropisomer, axis not shown; (M)) | system: HIV
-0.83

----------
- Tested on: HIV
- Assay overview: MT4 assay: antiviral HIV activity (cell protection, cell titer glo readout at 96 hours)
- Assay type: cell-based
- Reported conditions: Human immunodeficiency virus 1, MT4, 96 h, MT4 cells, cell titer glo readout at 96 hours, 10 point dose response; read-out: HIV MT4 Assay IC50
Entries and their pIC50 values follow.
# reply with the number alone; pIC50 is -log10 of concentration in mol/L

Example entries begin here.
> print(dat)
                                  structure  readout.kind  value.measured
1  Cc1nc2c(cc(-c3ccnc(-c4ccc5c(cnn5C)c4)c3)n2C)c(-c2ccc3c(c2)CCCO3)c1[C@H](OC(C)(C)C)C(=O)O         pIC50            8.34
2  CC1=NC2(CCN(C(=O)c3cc4c(-c5cc(F)c6c(c5C)CCCO6)c([C@H](OC(C)(C)C)C(=O)O)c(C)nc4n3C)CC2)N=C1c1ccccc1         pIC50            7.33

I would be grateful if you could share the reported pIC50 for "Cc1nc2c(cc(-c3nnc(N4CCN(CC5CCOCC5)CC4)o3)n2C)c(-c2cc(F)c3c(c2C)CCCO3)c1[C@H](OC(C)(C)C)C(=O)O" .
8.34

----------
Quick reference for pIC50 among some molecules
- Tested on: HIV
- Assay overview: MT4 assay: antiviral HIV activity (cell protection, cell titer glo readout at 96 hours)
- Type: cell-based
- Reported conditions: Human immunodeficiency virus 1, MT4, 96 h, MT4 cells, cell titer glo readout at 96 hours, 10 point dose response; read-out: HIV MT4 Assay IC50
Bear in mind: pIC50 is minus log10 of a mol/L concentration; give just that figure.

Item under review: Cc1nc2c(cc(-c3ccnc(C(=O)Nc4ccn(C)n4)c3)n2C)c(-c2cc(F)c3c(c2C)CCCO3)c1[C@H](OC(C)(C)C)C(=O)O (atropisomer, axis not shown) . Reported pIC50?
7.36

I would be grateful if you could share the reported pIC50 for "Cc1nc2c(cc(C(=O)N3CCCN(C4COC4)CC3)n2C)c(-c2cc(F)c3c(c2C)CCCO3)c1[C@H](OC(C)(C)C)C(=O)O" .
5.44

Fill in the blank: the reported pIC50 of Cc1nc2c(cc(-c3ccnc(-c4ccc5cn(C)nc5c4)c3)n2C)c(-c2cc(F)c3c(c2C)CCCO3)c1[C@H](OC(C)(C)C)C(=O)O (atropisomer, axis not shown) is ____.
8.68

Returns the measured pIC50 for the input molecule. Input: "Cc1nc2c(cc(-c3nc(N4CCN(C(=O)N5CCOCC5)CC4)ns3)n2C)c(-c2cc(F)c3c(c2C)CCCO3)c1[C@H](OC(C)(C)C)C(=O)O"
8.03

Fill in the blank: the reported pIC50 of "Cc1nc2c(cc(CN(C)C(=O)c3ccc4c(cnn4C)c3)n2C)c(-c2cc(F)c3c(c2C)CCCO3)c1[C@H](OC(C)(C)C)C(=O)O" is ____.
7.55

This collection of values is drawn from patent US20150191469A1.
